pKi: recorded values
Target: human sphingosine kinase type 2 (hSPHK2) (Homo sapiens, UniProt Q9NRA0)
Sequence (Q9NRA0 whole entry): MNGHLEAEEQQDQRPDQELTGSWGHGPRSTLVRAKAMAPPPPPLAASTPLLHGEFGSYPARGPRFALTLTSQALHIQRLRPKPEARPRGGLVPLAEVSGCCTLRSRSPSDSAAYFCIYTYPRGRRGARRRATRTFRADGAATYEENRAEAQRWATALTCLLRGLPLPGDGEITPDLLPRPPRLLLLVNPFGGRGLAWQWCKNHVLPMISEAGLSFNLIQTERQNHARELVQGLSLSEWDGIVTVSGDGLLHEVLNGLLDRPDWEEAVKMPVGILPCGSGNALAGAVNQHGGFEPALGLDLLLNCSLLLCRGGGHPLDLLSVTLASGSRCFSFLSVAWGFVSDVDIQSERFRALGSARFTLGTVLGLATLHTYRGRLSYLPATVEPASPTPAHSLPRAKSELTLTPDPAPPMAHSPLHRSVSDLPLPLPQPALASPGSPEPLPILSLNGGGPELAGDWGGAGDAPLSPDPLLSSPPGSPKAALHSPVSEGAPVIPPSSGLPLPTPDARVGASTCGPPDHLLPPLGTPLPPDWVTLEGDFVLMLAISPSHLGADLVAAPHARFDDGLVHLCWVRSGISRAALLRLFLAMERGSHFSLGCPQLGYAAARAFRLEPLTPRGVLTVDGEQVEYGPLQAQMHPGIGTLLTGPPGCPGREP
Test: Sphingosine kinase assay, recombinant human SPHK2 ([32P]S1P product, scintillation counting)
Settings: read-out: activity hSPHK2 (range estimate of KI)
pKi: −log10 of the molar value. Where a name gives a salt, the structure may show the parent alone.

Completed entries (count: 3):
| Molecule | pKi |
| --- | --- |
| CCCCc1ccc(CCc2ccc(-c3noc([C@@H]4CCCN4C(=N)N)n3)cc2C(F)(F)F)cc1 [Compound 36A, hydrochloride] | > 6.00 |
| N=C(N)N1CC[C@H](O)[C@H]1c1nc(-c2ccc(OCc3ccc(C(F)(F)F)cc3)c(C(F)(F)F)c2)no1 [Compound 24A] | > 6.00 |
| COCCCCOc1ccc2cc(-c3noc([C@@H]4CCCN4C(=N)N)n3)ccc2c1 [Compound 65A] | < 5.00 |

Sample N=C(N)N1CCC[C@H]1c1nc(-c2ccc3cc(OCc4cccc(Br)c4)ccc3c2)no1 [Compound 58A] — what was its pKi? < 5.00

Sample N=C(N)N1CCC[C@H]1c1nc(-c2ccc(OC/C=C/c3ccc(F)cc3)c(C(F)(F)F)c2)no1 [Compound 87A, hydrochloride] — what was its pKi? > 6.00

Sample CCCCCCCCOc1ccc(-c2noc([C@@H]3CCCN3C(=N)N)n2)cc1Br [Compound 4B] — what was its pKi? > 6.00

Sample CCCCCCCn1cc(-c2noc([C@@H]3CCCN3C(=N)N)n2)c2ccccc21 [Compound 1A] — what was its pKi? < 5.00

Sample CCCCCCOc1ccc2cc(-c3noc([C@@H]4CCCN4C(=N)N)n3)ccc2c1 [Compound 16A] — what was its pKi? < 5.00

Sample N=C(N)N1C[C@H](O)C[C@H]1c1nc(-c2ccc(OCCCc3ccc4c(c3)OCCO4)c(C(F)(F)F)c2)no1 [Compound 59A] — what was its pKi? < 5.00

Sample N=C(N)N1CCC[C@H]1c1nc(-c2ccc(OC/C=C\c3ccc(C(F)(F)F)cc3)c(C(F)(F)F)c2)no1 [Compound 92A, 2,2,2-trifluoroacetate] — what was its pKi? > 6.00

Sample CCCCCCCCCCn1ccc2ccc(-c3noc([C@@H]4CCCN4C(=N)N)n3)cc21 [Compound 18A] — what was its pKi? 5.00 to 6.00

Sample N=C(N)N1CCC[C@H]1c1nc(-c2ccc(OCCCCc3ccc(C(F)(F)F)cc3)c(C(F)(F)F)c2)no1 [Compound 26A] — what was its pKi? > 6.00
